Origin of values: paper PMC10814857

- measured target: RP1, fluorescein-labelled reference peptide, a SOS1 derivative encompassing part of P3 (human, UniProt Q07889, fluorescein (FITC) label, position not stated)
- experiment: FP
Recorded pKd, one value per entry.
A value of pKd is the negative decimal logarithm of a concentration given in moles per litre.

Sample NCK1-2 SH3 domain, GST cleaved (domain or fragment) DLNMPAYVKFNYMAEREDELSLIKGTKVIVMEKCSDGWWRGSYNGQVGWFPSNYVTEEGD — what was its pKd? 5.70

Next: ARHGAP12 SH3 domain, GST cleaved (domain or fragment) PGQVYIEVEYDYEYEAKDRKIVIKQGERYILVKKTNDDWWQVKPDENSKAFYVPAQYVKEVTR 4.78

Next: NCK1-3, third SH3 domain of NCK1, GST cleaved (domain or fragment) QVLHVVQALYPFSSSNDEELNFEKGDVMDVIEKPENDPEWWKCRKINGMVGLVPKNYVTVMQN 4.61

Next: ABL2 SH3 domain, GST cleaved (domain or fragment) SDPNLFVALYDFVASGDNTLSITKGEKLRVLGYNQNGEWSEVRSKNGQGWVPSNYITPVNS 4.96
